Values were extracted from PubChem BioAssay.

# ASSAYED_SYSTEM: Pantothenate synthetase (Mycobacterium tuberculosis (strain ATCC 25618 / H37Rv))
# ASSAY: Coupled enzyme confirmation of inhibitors against recombinant Mtb PanC (AID 375);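 also: 0% = full reaction with vehicle and 100% = no enzyme background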
# MEASUREMENT_PARAMETERS: coupled enzyme assay; at 10 µM, active compounds read high

- COMPOUND: "CCCCOc1ccc(N(CC(=O)NC2CCCC2)C(=O)CCC(=O)Nc2ccccn2)cc1"
  ASSAYED_SYSTEM: "Pantothenate synthetase (Mycobacterium tuberculosis (strain ATCC 25618 / H37Rv))"
  inhibition / %: 0
- COMPOUND: "CCOC(=O)C1=C(N)OC2=C(C(=O)CC(C)(C)C2)C1c1ccoc1 (centres undefined)"
  ASSAYED_SYSTEM: "Pantothenate synthetase (Mycobacterium tuberculosis (strain ATCC 25618 / H37Rv))"
  inhibition / %: 0
- COMPOUND: "CCCS(=O)(=O)N1CCN(Cc2ccc(OCc3ccccc3)c(OC)c2)CC1"
  ASSAYED_SYSTEM: "Pantothenate synthetase (Mycobacterium tuberculosis (strain ATCC 25618 / H37Rv))"
  inhibition / %: 4
- COMPOUND: "CC(C)[C@H](NC(=O)OC(C)(C)C)c1nnc(SCC(=O)Nc2ccc(Br)cc2)o1"
  ASSAYED_SYSTEM: "Pantothenate synthetase (Mycobacterium tuberculosis (strain ATCC 25618 / H37Rv))"
  inhibition / %: 0
- COMPOUND: "CS(=O)(=O)N(CC(=O)Nc1cccc(F)c1)Cc1ccccc1"
  ASSAYED_SYSTEM: "Pantothenate synthetase (Mycobacterium tuberculosis (strain ATCC 25618 / H37Rv))"
  inhibition / %: 0
- COMPOUND: "CC(=O)N1CCc2cc(S(=O)(=O)NCCC3=CCCCC3)ccc21"
  ASSAYED_SYSTEM: "Pantothenate synthetase (Mycobacterium tuberculosis (strain ATCC 25618 / H37Rv))"
  inhibition / %: 2
- COMPOUND: "COc1ccccc1OCC(=O)N1CCN(c2ccccc2OC)CC1"
  ASSAYED_SYSTEM: "Pantothenate synthetase (Mycobacterium tuberculosis (strain ATCC 25618 / H37Rv))"
  inhibition / %: 0
- COMPOUND: "CC(O)c1n(C)c(Cl)c[n+]1C (centres undefined)"
  ASSAYED_SYSTEM: "Pantothenate synthetase (Mycobacterium tuberculosis (strain ATCC 25618 / H37Rv))"
  inhibition / %: 3
- COMPOUND: "CCCCCSc1nc2c(cnn2-c2ccccc2)c(=O)[nH]1"
  ASSAYED_SYSTEM: "Pantothenate synthetase (Mycobacterium tuberculosis (strain ATCC 25618 / H37Rv))"
  inhibition / %: 11
- COMPOUND: "CCOc1ccccc1C(=O)Nc1nnc(CC)s1"
  ASSAYED_SYSTEM: "Pantothenate synthetase (Mycobacterium tuberculosis (strain ATCC 25618 / H37Rv))"
  inhibition / %: 0
- COMPOUND: "CN(C)C(=O)Cn1c(SCC(=O)NC2CCCCC2)nc2ccccc21"
  ASSAYED_SYSTEM: "Pantothenate synthetase (Mycobacterium tuberculosis (strain ATCC 25618 / H37Rv))"
  inhibition / %: 0
- COMPOUND: "CCN(CC)S(=O)(=O)c1ccc2[nH]cc(C(=O)NCCC3=CCCCC3)c(=O)c2c1"
  ASSAYED_SYSTEM: "Pantothenate synthetase (Mycobacterium tuberculosis (strain ATCC 25618 / H37Rv))"
  inhibition / %: 0
- COMPOUND: "COc1ccc(CCn2c(O)c(C=NCc3cccnc3)c(=O)[nH]c2=O)cc1OC"
  ASSAYED_SYSTEM: "Pantothenate synthetase (Mycobacterium tuberculosis (strain ATCC 25618 / H37Rv))"
  inhibition / %: 0
- COMPOUND: "COc1ccccc1-n1c(C)nnc1SCC(N)=O"
  ASSAYED_SYSTEM: "Pantothenate synthetase (Mycobacterium tuberculosis (strain ATCC 25618 / H37Rv))"
  inhibition / %: 0
- COMPOUND: "Cc1ccc(S(=O)(=O)CC(=O)N2CCCCCC2)cc1"
  ASSAYED_SYSTEM: "Pantothenate synthetase (Mycobacterium tuberculosis (strain ATCC 25618 / H37Rv))"
  inhibition / %: 0
- COMPOUND: "Cc1csc(NC(=O)c2cc3c(s2)-c2ccccc2OC3)n1"
  ASSAYED_SYSTEM: "Pantothenate synthetase (Mycobacterium tuberculosis (strain ATCC 25618 / H37Rv))"
  inhibition / %: 0
- COMPOUND: "c1cc(CNc2ccc3c(c2)OCO3)ccn1"
  ASSAYED_SYSTEM: "Pantothenate synthetase (Mycobacterium tuberculosis (strain ATCC 25618 / H37Rv))"
  inhibition / %: 0
- COMPOUND: "c1cncc(-c2nnc(-c3ccco3)o2)c1"
  ASSAYED_SYSTEM: "Pantothenate synthetase (Mycobacterium tuberculosis (strain ATCC 25618 / H37Rv))"
  inhibition / %: 4
- COMPOUND: "CCCNC(=O)N1CCN(S(=O)(=O)c2ccc(C)c(C)c2)CC1"
  ASSAYED_SYSTEM: "Pantothenate synthetase (Mycobacterium tuberculosis (strain ATCC 25618 / H37Rv))"
  inhibition / %: 4
- COMPOUND: "CCOc1ccc(-n2cc(C(=O)Nc3cccc(C)n3)c3cc(OC)c(OC)cc3c2=O)cc1"
  ASSAYED_SYSTEM: "Pantothenate synthetase (Mycobacterium tuberculosis (strain ATCC 25618 / H37Rv))"
  inhibition / %: 1
- COMPOUND: "Cc1ccc(S(=O)(=O)NCC(=O)N(CC(=O)NC2CCCCC2)Cc2ccco2)cc1"
  ASSAYED_SYSTEM: "Pantothenate synthetase (Mycobacterium tuberculosis (strain ATCC 25618 / H37Rv))"
  inhibition / %: 11
- COMPOUND: "O=C(COC(=O)c1cnccn1)Nc1ccc2c(c1)OCO2"
  ASSAYED_SYSTEM: "Pantothenate synthetase (Mycobacterium tuberculosis (strain ATCC 25618 / H37Rv))"
  inhibition / %: 7
- COMPOUND: "Cn1c(=O)c2c(nc(NCc3ccc4c(c3)OCO4)n2Cc2ccccc2F)n(C)c1=O"
  ASSAYED_SYSTEM: "Pantothenate synthetase (Mycobacterium tuberculosis (strain ATCC 25618 / H37Rv))"
  inhibition / %: 3
- COMPOUND: "CCCCc1oc2ccccc2c1C(=O)c1cc(I)c(OCCN(CC)CC)c(I)c1"
  ASSAYED_SYSTEM: "Pantothenate synthetase (Mycobacterium tuberculosis (strain ATCC 25618 / H37Rv))"
  inhibition / %: 8
- COMPOUND: "COc1ccc(NC(=O)CSc2nnc(-c3ccccc3C)n2C)cc1"
  ASSAYED_SYSTEM: "Pantothenate synthetase (Mycobacterium tuberculosis (strain ATCC 25618 / H37Rv))"
  inhibition / %: 0
- COMPOUND: "CC1(C)O[C@@H]2C[C@H]3[C@@H]4C[C@H](F)C5=CC(=O)CC[C@]5(C)[C@H]4[C@@H](O)C[C@]3(C)[C@]2(C(=O)CO)O1"
  ASSAYED_SYSTEM: "Pantothenate synthetase (Mycobacterium tuberculosis (strain ATCC 25618 / H37Rv))"
  inhibition / %: 7
- COMPOUND: "COc1ccc(NC(=O)CN2CCN(S(=O)(=O)c3ccc(Cl)cc3)CC2)cc1"
  ASSAYED_SYSTEM: "Pantothenate synthetase (Mycobacterium tuberculosis (strain ATCC 25618 / H37Rv))"
  inhibition / %: 13
- COMPOUND: "CCc1nnc(NC(=O)CSc2nnc3ncccn23)s1"
  ASSAYED_SYSTEM: "Pantothenate synthetase (Mycobacterium tuberculosis (strain ATCC 25618 / H37Rv))"
  inhibition / %: 11
- COMPOUND: "COC(=O)C1=C(C)NC(C)=C(C(=O)OC)C1C(=O)OC1CCCCC1=O (centres undefined)"
  ASSAYED_SYSTEM: "Pantothenate synthetase (Mycobacterium tuberculosis (strain ATCC 25618 / H37Rv))"
  inhibition / %: 0

====

# ASSAYED_SYSTEM: Pantothenate synthetase (Mycobacterium tuberculosis (strain ATCC 25618 / H37Rv)) (UniProt P9WIL5)
# Sequence (P9WIL5 whole entry, looked up): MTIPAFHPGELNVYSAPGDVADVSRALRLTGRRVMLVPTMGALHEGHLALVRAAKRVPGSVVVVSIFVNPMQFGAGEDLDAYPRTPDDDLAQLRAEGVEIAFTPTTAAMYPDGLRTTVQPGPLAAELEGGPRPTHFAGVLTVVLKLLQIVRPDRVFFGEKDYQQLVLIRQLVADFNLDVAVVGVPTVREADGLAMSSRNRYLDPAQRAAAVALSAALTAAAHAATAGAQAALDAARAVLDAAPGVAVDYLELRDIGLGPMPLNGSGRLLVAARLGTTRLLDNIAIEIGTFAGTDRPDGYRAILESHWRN
# ASSAY: Coupled enzyme confirmation of inhibitors against recombinant Mtb PanC (AID 375);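 also: 0% = full reaction with vehicle and 100% = no enzyme background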
# MEASUREMENT_PARAMETERS: coupled enzyme assay; at 10 µM, active compounds read high

- COMPOUND: "CCN(CC)C(=O)c1ccc(O)c(OC)c1"
  UNIT_INFO: "%"
  inhibition: 0
- COMPOUND: "O=C(Nc1ccc(-c2nc3ncccc3o2)cc1)c1ccc(Br)o1"
  UNIT_INFO: "%"
  inhibition: 15
- COMPOUND: "COC(=O)c1sc2ccccc2c1NC(=O)c1cccs1"
  UNIT_INFO: "%"
  inhibition: 2
- COMPOUND: "COc1ccccc1NC(=O)CSC1CC(=O)N(c2ccc3c(c2)OCO3)C1=O (stereo not given)"
  UNIT_INFO: "%"
  inhibition: 0
- COMPOUND: "CC(C)CNC(=O)C1C2C=CC(C2)C1C(=O)O (stereo not given)"
  UNIT_INFO: "%"
  inhibition: 7
- COMPOUND: "CCc1nnc(NC(=O)CSc2nnc(-c3ccoc3C)n2CC(C)C)s1"
  UNIT_INFO: "%"
  inhibition: 0
- COMPOUND: "O=C(O)CCN1C(=O)c2ccccc2C1=O"
  UNIT_INFO: "%"
  inhibition: 6
- COMPOUND: "COc1ccc(NC(=O)COc2ccccc2)c(OC)c1"
  UNIT_INFO: "%"
  inhibition: 0
- COMPOUND: "O=C(OCN1C(=O)c2ccccc2C1=O)C1CCCCC1"
  UNIT_INFO: "%"
  inhibition: 1
- COMPOUND: "Cn1c(SCC(=O)N2CCOCC2)nnc1-c1cccc(NC(=O)c2ccccc2F)c1"
  UNIT_INFO: "%"
  inhibition: 0
- COMPOUND: "CC(C)CCNC(=O)C(c1cccs1)N(CC1CCCO1)C(=O)Cn1nnc2ccccc21 (stereo not given)"
  UNIT_INFO: "%"
  inhibition: 0
- COMPOUND: "CCOC(=O)C1CCN(Cc2ccc(F)c(Br)c2)CC1"
  UNIT_INFO: "%"
  inhibition: 0
- COMPOUND: "Cc1cc2c(cc1C)C(=O)NC(C)(C)C2"
  UNIT_INFO: "%"
  inhibition: 0
- COMPOUND: "CCOc1ccc(NC(=O)C2CC(=O)N(CC)C(=Nc3ccc4c(c3)OCO4)S2)cc1 (stereo not given)"
  UNIT_INFO: "%"
  inhibition: 3
- COMPOUND: "C=C(C)CSc1nnc(-c2cccc(S(=O)(=O)N(C)C)c2)n1-c1cc(OC)ccc1OC"
  UNIT_INFO: "%"
  inhibition: 1
- COMPOUND: "C=CCOc1ccccc1/C=c1\\sc2nc(=O)c(C)nn2c1=O"
  UNIT_INFO: "%"
  inhibition: 0
- COMPOUND: "COc1cccc(-c2nc3n(n2)C(c2cccs2)C(C(=O)Nc2cccnc2)=C(C)N3)c1 (stereo not given)"
  UNIT_INFO: "%"
  inhibition: 0
- COMPOUND: "COc1ccc(C(NC(=O)C(C)(C)C)NC(=O)C(C)(C)C)cc1"
  UNIT_INFO: "%"
  inhibition: 0
- COMPOUND: "CCOC(=O)c1[nH]c(CSc2nnc(-c3ccc(OC)cc3)o2)c(C(=O)OCC)c1C"
  UNIT_INFO: "%"
  inhibition: 0
- COMPOUND: "O=C(CSc1nnc(CNC(=O)c2cccs2)o1)NC1CCCC1"
  UNIT_INFO: "%"
  inhibition: 0
- COMPOUND: "O=C(Nc1ccc(OC(=O)c2ccco2)cc1)c1ccco1"
  UNIT_INFO: "%"
  inhibition: 7
- COMPOUND: "CN(C)CCCNC(=O)CCC1CCCCC1"
  UNIT_INFO: "%"
  inhibition: 6
- COMPOUND: "Cc1cc(C)nc(NC2=NCC(=O)N2c2ccccc2Br)n1"
  UNIT_INFO: "%"
  inhibition: 0
- COMPOUND: "Clc1ccc(Cl)c(-c2ccc(/C=N/c3ncn[nH]3)o2)c1"
  UNIT_INFO: "%"
  inhibition: 4
- COMPOUND: "COC(=O)Nc1ccc(S(=O)(=O)N(C)CC(F)(F)C(F)F)cc1"
  UNIT_INFO: "%"
  inhibition: 6
- COMPOUND: "CCOC(=O)c1c(C)[nH]c(C(=O)Cn2c(=O)oc3ccccc32)c1C"
  UNIT_INFO: "%"
  inhibition: 4
- COMPOUND: "COc1ccccc1N1CCN(C(=O)N2CCOCC2)CC1"
  UNIT_INFO: "%"
  inhibition: 0
- COMPOUND: "CCN1CCN(Cc2nc3c(c(=O)n(C)c(=O)n3C)n2CC(=O)c2ccccc2)CC1"
  UNIT_INFO: "%"
  inhibition: 2
- COMPOUND: "CCC(C)OC(=O)n1ccc(C(=O)Nc2nccs2)n1 (stereo not given)"
  UNIT_INFO: "%"
  inhibition: 0
- COMPOUND: "Cc1cc(C(F)(F)F)nc(SCC(=O)NC2=NC(=O)C(C)S2)n1 (stereo not given)"
  UNIT_INFO: "%"
  inhibition: 2
